Data provenance is patent US20250154145A1.

Record form. Attribute: pIC50. Fill in for each entry.
test system: neutrophils; assay: Neutrophil calcium flux assay (5-OXO-ETE-stimulated, Indo-1 fluorescence); assay type: cell-based; details: Neutrophil, 5-OXO-ETE-stimulated calcium flux
pIC50: −log10 of the molar value.

Identify pIC50 associated with the compound C[C@@H](CC(=O)O)CC(=O)c1c(CCCCCCC#CC2CC(F)(F)C2)n(C)c2ncc(C#N)cc12 [Compound I-329]
< 6.52

Return value of pIC50 for input C[C@H](CC(=O)O)CC(=O)c1c(CCCCOCc2cccc(Cl)c2)n(C)c2ccc(Cl)cc12 [Compound I-60] , no commentary.
> 7.00

Identify pIC50 associated with the compound C[C@@H](CC(=O)O)CC(=O)c1c(CCCCOCc2cccc(C#N)c2)n(C)c2ncc(C#N)cc12 [Compound I-384]
< 6.52

Output measured pIC50 for this item: CC(CC(=O)O)CC(=O)c1c(CCOCCNc2cccc(Cl)c2)n(C)c2ncc(C#N)cc12 (stereo not shown) [Compound I-288]
6.52 to 7.00
